Data credit: paper PMC4388757

experiment: LD50 determination of VAS (unpublished data); conditions: in vivo; no published data
measurement-name: LD50 (mg/kg)
// return numeric value only (unit: mg/kg, not printed)

### Prompt So what does the record say about LD50 for O[C@H]1CCN2Cc3ccccc3N=C12 [Metabolite M0, Vasicine] ?
### Response 308

###

Molecular target: BChE from equine serum (Equus caballus)
Construct: BChE from equine serum; purchased Sigma Aldrich Co. (St. Louis, MO, USA); host or cells: equine serum
Sequence (P81908 whole entry): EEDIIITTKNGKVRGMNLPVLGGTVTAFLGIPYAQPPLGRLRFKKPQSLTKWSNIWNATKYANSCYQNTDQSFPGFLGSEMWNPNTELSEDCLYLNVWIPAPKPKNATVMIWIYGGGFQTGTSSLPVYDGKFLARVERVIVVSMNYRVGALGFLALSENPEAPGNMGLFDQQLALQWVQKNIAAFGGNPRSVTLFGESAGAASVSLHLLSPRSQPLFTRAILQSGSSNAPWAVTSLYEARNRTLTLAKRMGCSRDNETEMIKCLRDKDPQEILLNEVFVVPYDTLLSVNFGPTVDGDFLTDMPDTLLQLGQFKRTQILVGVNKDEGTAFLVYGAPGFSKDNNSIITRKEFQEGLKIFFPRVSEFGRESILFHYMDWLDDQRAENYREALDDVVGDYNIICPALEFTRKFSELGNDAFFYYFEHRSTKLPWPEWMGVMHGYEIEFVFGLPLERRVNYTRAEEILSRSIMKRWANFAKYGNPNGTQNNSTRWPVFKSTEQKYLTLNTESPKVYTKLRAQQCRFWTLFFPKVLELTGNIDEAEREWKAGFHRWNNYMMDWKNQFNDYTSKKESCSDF
Assay: In vitro anticholinesterase assay (UPLC-ESI MS/MS), BChE
Type: biochemical
Conditions: means ± SD of three replicate determinations
Experimental: VAS and VAO were isolated from P. harmala in our laboratory according to a previously reported method. VAS and VAO structures were elucidated by comparing their spectral data (UV, MS, ^1H-NMR, and ^13C NMR) with the references. The purities of VAS and VAO were determined to be more than 98% through normalization of the peak areas detected by HPLC-DAD, UPLC-MS/MS, ^1H-NMR, and ^13C NMR. […]
Measured IC50 values are reported for all entries that follow.
Numeric only. Scale: µM

Below, each entry is followed by its recorded IC50 result.
### Prompt Lab note: need IC50 for O=S(=O)(O)OC1CCN2Cc3ccccc3N=C12 (stereo not shown) [Metabolite M15] on BChE from equine serum (Equus caballus), anyone have it?
### Response 9.82

### Prompt For BChE from equine serum (Equus caballus), provide IC50 of O=c1c2ccccc2nc2n1CCC2OS(=O)(=O)O (stereo not shown) [Metabolite M16] please.
### Response 27.3

### Prompt Requested read-out IC50, target or system BChE from equine serum (Equus caballus), entry O=c1c2cc(O)ccc2nc2n1CCC2O (stereo not shown) [Metabolite M5-2, vasicinolone]
### Response 72.4

### Prompt Item: Oc1ccc2c(c1)CN1CCC(O)C1=N2 (stereo not shown) [Metabolite M3-2, vasicinol] Test system: BChE from equine serum (Equus caballus) Read-out: IC50 Value: ?
### Response 2.46

### Prompt Missing value: IC50, BChE from equine serum (Equus caballus), entry O=c1c2ccccc2nc2n1CCC2O (stereo not shown) [Metabolite M1, vasicinone] . Fill in?
### Response 10.2

### Prompt Lab request: please report IC50 under test system BChE from equine serum (Equus caballus) for O=C(O)C1OC(OC2CCN3Cc4ccccc4N=C23)C(O)C(O)C1O (stereo not shown) [Metabolite M20-2]
### Response 104

Next molecule, IC50 to be filled in.
### Prompt For BChE from equine serum (Equus caballus), provide IC50 of O[C@H]1CCN2Cc3ccccc3N=C12 [Metabolite M0, Vasicine] please.
### Response 0.101
